# protocol.notes: blocks a specific stage of Vaccinia orthopoxvirus infection, primary screen, cell-based, single point (AID 1053133)
# experimental.context: Vaccinia-infected cells, mCherry/Venus stage reporter fluorescence, stronger effect = lower value, concentration not given here; measured here: Venus reporter, other viral stage
The campaign covered roughly 89,000 compounds. About 10 (0.01%) were called active. Inconclusive results (about 10%) are left out. Not all results are given here.
activity change (Venus) by entry:
Please reply with the bare figure in % and do not write the unit itself.

| molecule | activity change (Venus) [%] |
| --- | --- |
| COc1ccccc1CNC(=O)C[C@H]1CC[C@@H](NC(=O)CN(C)C)[C@@H](CO)O1 | 17.1 |
| COc1ccccc1NC(=O)N[C@H]1CC[C@H](CCn2cc(-c3cccnc3)nn2)O[C@@H]1CO | 7.22 |
| O=C(C[C@H]1CC[C@H](NC(=O)CCN2CCCCC2)[C@@H](CO)O1)Nc1ccccc1 | 15.9 |
| CS(=O)(=O)N1CC(=O)N2[C@@H](CO)[C@@H](c3ccc(C#CCC4CCCC4)cc3)[C@@H]2C1 | -6.84 |

Task: Consider the molecule `CC(C)NC(=O)N1[C@H](CO)[C@H](c2ccccc2)C12CN(C(=O)Cc1ccccc1)C2` and give its measured activity change (Venus).
Result: 4.09

Task: // same read-out, input: `O=C(C[C@@H]1CC[C@@H]2[C@H](COC[C@H](O)CN2C(=O)c2ccc3c(c2)OCO3)O1)NC1CCCC1`
Result: 4.69

Task: // same read-out, input: `O=C(Nc1cc(F)ccc1F)N[C@H]1CC[C@H](CCn2cc(C3CCCC3)nn2)O[C@@H]1CO`
Result: -13.1

Task: // same read-out, input: CC=Cc1ccc2n(c1=O)C[C@@H]1[C@@H](CO)[C@H](C(=O)NCc3cccc(OC)c3)N[C@H]21 (mixture of isomers)
Result: 12.7

###

# protocol.notes: blocks a specific stage of Vaccinia orthopoxvirus infection, primary screen, cell-based, single point (AID 1053133)
# experimental.context: Vaccinia-infected cells, mCherry/Venus stage reporter fluorescence, stronger effect = lower value, concentration not given here
Screen size: about 89,000 compounds; about 10 (0.01%) were called active. Not shown: some 10% with an inconclusive outcome. The list is a sample of the results.
assay.readout: activity change (mCherry) (%)
Please reply with the bare figure in % and do not write the unit itself.

| smiles.data | unit.of.measure | result |
| --- | --- | --- |
| COc1ccc(S(=O)(=O)Nc2ccc3c(c2)C(=O)N([C@@H](C)CO)C[C@H](C)[C@@H](CN(C)C(=O)c2ccccc2)OCCCC[C@H](C)O3)cc1 | % | -21.6 |
| C[C@@H]1CN([C@@H](C)CO)C(=O)Cc2cc(NS(=O)(=O)c3cccs3)ccc2O[C@H]1CN(C)S(=O)(=O)c1ccc(F)cc1 | % | -5.12 |

Moving on to another compound below.
Task: Consider the compound `O=C(C[C@@H]1CC[C@@H]2[C@H](COC[C@H](O)CN2S(=O)(=O)c2ccccc2)O1)N[C@H]1CCN(Cc2ccccc2)C1` and give its measured activity change (mCherry).
Result: -10.6

###

# protocol.notes: blocks a specific stage of Vaccinia orthopoxvirus infection, primary screen, cell-based, single point (AID 1053133)
# experimental.context: Vaccinia-infected cells, mCherry/Venus stage reporter fluorescence, stronger effect = lower value, concentration not given here; measured here: Venus reporter, other viral stage
In all, about 89,000 compounds went through this assay and about 10 (0.01%) were called active. Roughly 10% stayed inconclusive and do not appear here. A selection follows.
activity change (Venus) by entry:
Please reply with the bare figure in % and do not write the unit itself.

| smiles.data | result |
| --- | --- |
| C[C@@H]1CCCCO[C@H](CN(C)S(=O)(=O)c2cccs2)[C@H](C)CN([C@@H](C)CO)C(=O)c2cc(NC(=O)Nc3ccc4c(c3)OCO4)ccc2O1 | 8.44 |

Moving on to another compound below.
Task: Consider the compound `O=C(Nc1nccs1)[C@@H]1[C@@H](CO)[C@@H]2Cn3c(ccc(-c4cccnc4)c3=O)[C@@H]2N1CC1CC1` and give its measured activity change (Venus).
Result: 2.33

###

activity change (Venus) by entry:
# protocol.notes: blocks a specific stage of Vaccinia orthopoxvirus infection, primary screen, cell-based, single point (AID 1053133)
# experimental.context: Vaccinia-infected cells, mCherry/Venus stage reporter fluorescence, stronger effect = lower value, concentration not given here; measured here: Venus reporter, other viral stage
Out of some 89,000 compounds screened, about 10 (0.01%) were called active. About 10% were inconclusive and are not listed. A selection follows.
Please reply with the bare figure in % and do not write the unit itself.

| smiles.data | result |
| --- | --- |
| C[C@H](CO)N1C[C@H](C)[C@H](CN(C)C(=O)C2CCOCC2)Oc2ncc(-c3ccccc3F)cc2C1=O | 6.04 |

Task: Consider the compound `O=C(c1ccccn1)N1CC2(C1)[C@H](c1ccccc1)[C@H](CO)N2C(=O)C1CCCC1` and give its measured activity change (Venus).
Result: -9.04

Task: // same read-out, input: `CCC(=O)N1CCC2(CC1)CN(Cc1ccc(Cl)cc1)[C@@H](CO)c1[nH]c3cc(OC)ccc3c12`
Result: 3.95

Task: // same read-out, input: `O=C(C[C@H]1CC[C@H]2[C@@H](COC[C@@H](O)CN2S(=O)(=O)c2ccc(Cl)cc2)O1)NCCN1CCCCC1`
Result: 2.96

Task: // same read-out, input: `CO[C@H]1CN(C)C(=O)c2cc(NC(=O)C3CCC3)ccc2OC[C@H](C)N(CC2CCCCC2)C[C@@H]1C`
Result: 3.14

Task: // same read-out, input: `COc1ccc2c3c(n(C)c2c1)[C@H](CO)N(C(=O)c1ccc(F)cc1)CC31CCN(C(C)=O)CC1`
Result: 7.75

Task: // same read-out, input: `C[C@@H]1CN([C@@H](C)CO)C(=O)Cc2cc(NS(=O)(=O)c3cccs3)ccc2O[C@H]1CN(C)S(=O)(=O)c1ccc(F)cc1`
Result: 4.55

Task: // same read-out, input: `COc1ccc(-c2cn(CC[C@@H]3CC[C@@H](NC(=O)CCN4CCCCC4)[C@@H](CO)O3)nn2)cc1`
Result: 11.2

Task: // same read-out, input: `COc1ccc(S(=O)(=O)N[C@@H]2CC[C@@H](CC(=O)NCCc3ccccc3)O[C@@H]2CO)cc1`
Result: -2.59

Task: // same read-out, input: `C[C@@H](NC(=O)C[C@H]1C[C@@H]2c3cc(NC(=O)Nc4ccccc4F)ccc3O[C@@H]2[C@H](CO)O1)c1ccccc1`
Result: 0.165

Task: // same read-out, input: `O=C(c1ccncc1)N1C[C@H]2[C@@H](c3ccccc31)[C@H](CO)N2C(=O)c1ccccn1`
Result: 2.97

###

# protocol.notes: blocks a specific stage of Vaccinia orthopoxvirus infection, primary screen, cell-based, single point (AID 1053133)
# experimental.context: Vaccinia-infected cells, mCherry/Venus stage reporter fluorescence, stronger effect = lower value, concentration not given here; measured here: Venus reporter, other viral stage
The whole screen tested about 89,000 compounds, of which about 10 (0.01%) were called active. Roughly 10% stayed inconclusive and do not appear here. The list is a sample of the results.
activity change (Venus) by entry:
Please reply with the bare figure in % and do not write the unit itself.

Task: Consider the compound `COc1ccc2c3c(n(C)c2c1)[C@H](CO)N(CC1CCCCC1)CC31CCN(Cc2nccs2)CC1` and give its measured activity change (Venus).
Result: -17.6

Task: // same read-out, input: `C[C@@H]1CCCCO[C@H](CN(C)S(=O)(=O)c2ccc(Cl)cc2)[C@H](C)CN([C@@H](C)CO)C(=O)c2cc(NS(=O)(=O)c3cn(C)cn3)ccc2O1`
Result: 3.71

Task: // same read-out, input: `Cc1ccc(S(=O)(=O)N(C)C[C@@H]2Oc3ccc(NS(=O)(=O)c4ccc(F)cc4)cc3CC(=O)N([C@@H](C)CO)C[C@H]2C)cc1`
Result: -2.68

Task: // same read-out, input: `O=C(C1CCCCC1)N1CC2(C1)[C@H](c1ccccc1)[C@@H](CO)N2CCC(F)(F)F`
Result: -3.18

Task: // same read-out, input: `CC(=O)N1[C@@H]2Cn3c(ccc(C4=CCCC4)c3=O)[C@H]1[C@@H](C(=O)NC1CCC1)[C@@H]2CO`
Result: 2.6

###

# protocol.notes: blocks a specific stage of Vaccinia orthopoxvirus infection, primary screen, cell-based, single point (AID 1053133)
# experimental.context: Vaccinia-infected cells, mCherry/Venus stage reporter fluorescence, stronger effect = lower value, concentration not given here
Out of some 89,000 compounds screened, about 10 (0.01%) were called active. Not shown: some 10% with an inconclusive outcome. Only a sample is shown.
assay.readout: activity change (mCherry) (%)
Please reply with the bare figure in % and do not write the unit itself.

| smiles.data | activity change (mCherry) / % |
| --- | --- |
| O=C(Nc1cc(F)ccc1F)N[C@@H]1C=C[C@@H](CC(=O)N2CCc3ccccc3C2)O[C@@H]1CO | -17.7 |
| CCCC(=O)N1CC2(C1)CN(C(=O)Nc1cccc(F)c1)[C@@H](CO)c1c2c2ccc(OC)cc2n1C | 2.16 |
| O=C(C[C@@H]1CC[C@@H]2[C@H](COC[C@H](O)CN2C(=O)c2ccc3c(c2)OCO3)O1)NC1CCCC1 | 7.59 |
| O=C(Nc1cc(F)ccc1F)N[C@H]1CC[C@H](CCn2cc(C3CCCC3)nn2)O[C@@H]1CO | -6.78 |
| COc1ccccc1-c1ccc([C@H]2[C@@H](CO)N(CC3CC3)C23CN(S(C)(=O)=O)C3)cc1 | -10.8 |
| COc1ccc2c3c(n(C)c2c1)[C@H](CO)N(C(=O)c1ccc(F)cc1)CC31CCN(C(C)=O)CC1 | 25 |

Task: Consider the molecule `COc1ccc(-c2ccccc2[C@@H]2[C@@H](C#N)N(C(=O)NC3CCCC3)[C@H]2CO)cc1` and give its measured activity change (mCherry).
Result: -22.2

Task: // same read-out, input: `C[C@H](CO)N1C[C@H](C)[C@@H](CN(C)C(=O)c2cnccn2)Oc2ncc(Br)cc2C1=O`
Result: 2.65

Task: // same read-out, input: `COc1ccc(-c2cn(CC[C@H]3CC[C@@H](NC(=O)CCN4CCCCC4)[C@H](CO)O3)nn2)cc1`
Result: 0.142

Task: // same read-out, input: `COc1ccc(NC(=O)N(C)C[C@H]2OCCCC[C@@H](C)Oc3ccc(NS(=O)(=O)c4ccc(F)cc4)cc3C(=O)N([C@H](C)CO)C[C@H]2C)cc1`
Result: -18

Task: // same read-out, input: `COCC(=O)Nc1ccc2c(c1)C(=O)N(C)[C@@H]1CC[C@H](CC(=O)NCC3CC3)O[C@H]1CO2`
Result: 15.4

Task: // same read-out, input: `CCCN(C)C[C@@H]1Oc2ncc(-c3cccc(C(=O)N(C)C)c3)cc2C(=O)N([C@H](C)CO)C[C@@H]1C`
Result: 23.1

Task: // same read-out, input: `O=C(C[C@@H]1C[C@@H]2c3cc(NC(=O)Nc4ccccc4F)ccc3O[C@@H]2[C@H](CO)O1)NCCc1ccccc1`
Result: 9.1

Task: // same read-out, input: `O=C(Cc1cccnc1)N1CC(=O)N2[C@H](CO)[C@H](c3ccc(C#CC4CCCC4)cc3)[C@@H]2C1`
Result: -12.6

Task: // same read-out, input: `Cc1noc(C)c1NC(=O)N[C@@H]1CC[C@H](CCNC(=O)C2CCC2)O[C@@H]1CO`
Result: -10.7

Task: // same read-out, input: `O=C(C[C@H]1C=C[C@H](NC(=O)CC2CC2)[C@@H](CO)O1)NCc1ccccc1`
Result: 4.83

Task: // same read-out, input: `CCCNC(=O)N1[C@H](C#N)[C@@H](c2ccccc2C2=CCCCC2)[C@@H]1CO`
Result: -4.44

Task: // same read-out, input: `O=C(Cc1ccccn1)N[C@@H]1CC[C@H](CCn2cc(-c3ccc(F)cc3)nn2)O[C@@H]1CO`
Result: 11

Task: // same read-out, input: `O=C(C[C@H]1CC[C@@H]2[C@H](COC[C@H](O)CN2C(=O)c2ccc3c(c2)OCO3)O1)NC1CCC1`
Result: 3.32
